Taken from patent US20220135638A1.

Study system: T1, full-length human GLP-1R (GenBank NM_002062) with an N-terminal FLAG tag on HEK-293T cells (human), P43220
T1 chain: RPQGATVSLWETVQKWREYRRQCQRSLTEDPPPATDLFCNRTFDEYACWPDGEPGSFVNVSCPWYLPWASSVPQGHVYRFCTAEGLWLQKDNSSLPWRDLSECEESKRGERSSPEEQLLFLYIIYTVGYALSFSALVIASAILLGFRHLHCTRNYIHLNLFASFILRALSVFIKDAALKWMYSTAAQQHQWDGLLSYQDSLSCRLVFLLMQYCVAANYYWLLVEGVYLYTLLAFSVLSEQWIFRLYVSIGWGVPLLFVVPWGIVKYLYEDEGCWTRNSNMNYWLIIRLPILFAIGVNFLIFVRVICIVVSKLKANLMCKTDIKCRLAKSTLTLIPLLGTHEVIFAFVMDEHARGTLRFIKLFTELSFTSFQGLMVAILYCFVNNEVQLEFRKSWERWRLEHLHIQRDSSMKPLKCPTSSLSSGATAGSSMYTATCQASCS
Assay remarks: cell-based or functional assay
Numbered stars: 1 amine (or outer) side, 2 acyl side, 3 side chain; on linkers, the order of the positions; unused ones are H or OH. Square brackets hold non-standard residues; d marks the D form. Primed or numbered codes have the meaning given here. Side chains are listed from the residue outwards. Ends that are not written are not given here. * marks the point of attachment. C20 diacid = O=C(O)CCCCCCCCCCCCCCCCCCC(=O)*; C16 diacid = O=C(O)CCCCCCCCCCCCCCC(=O)*; γGlu = O=C(O)[C@H](CCC(=O)[*:2])N[*:1]; Iva = CC[C@](C)(N)C(=O)O; PEG3′ = not defined here; Aib = CC(C)(N)C(=O)O
Experimental endpoint: GLP EC50

Y[Aib]EGTFISDYSIALDR[Aib]HQ[Aib]NFVNW[Iva]LAQRPSSGAPPK([PEG3′-γGlu-C16 diacid])S (ends and bridges not checked) [Compound No. 530]
> 1000 nM

The record that follows has no GLP EC50 shown yet.
Ask: Retrieve GLP EC50 measured for Y[Aib]EGTFISDYSIALDR[Aib]HQ[Aib]NFVNW[Iva]LAQRPSSGAPK([Gly-Gly-Gly-Gly-Gly-γGlu-C20 diacid])PS (ends and bridges not checked) [Compound No. 458] and print it.
Reply: > 1000 nM
